tested on: MDA-MB-468 breast; assay: NCI tumour cell line growth inhibition, 48 h
Each entry below lists one item and its recorded GI50 value.
experimentalEndpoint: GI50

[
  {
    "compound": "Cc1ccc2cnc(N)c(C#Cc3cc(C(=O)Nc4ccc(CN5CCN(C)CC5)c(C(F)(F)F)c4)cnc3C)c2c1",
    "result": "932 nM"
  },
  {
    "compound": "C=C1CCC2C3(C)COC(C)(C)OC3CCC2(C)C1C/C=C1/C(=O)OCC1OC(C)=O (stereo unspecified)",
    "result": "1440 nM"
  },
  {
    "compound": "O=C(CNc1nc(-c2ccccc2)cs1)Nc1ccccc1",
    "result": "1550 nM"
  },
  {
    "compound": "COc1cc(C)ccc1C(=O)c1ccc(C)cc1OC",
    "result": "1390 nM"
  },
  {
    "compound": "CCCCN(CCCC)Cc1cc(Nc2ccnc3cc(Cl)ccc23)ccc1O",
    "result": "4940 nM"
  },
  {
    "compound": "S=C(Nc1ccc(OCc2nc3ccc(Cl)cc3[nH]2)cc1)NC1CCCCC1",
    "result": "2970 nM"
  }
]

* * *

system: UACC-62 melanoma; test: NCI tumour cell line growth inhibition, 48 h; in the data active = GI50 below about 0.43 µM; inactive = the rest
Outcome codes: Y (active), N (inactive)

[
  {
    "smilesStructure": "Cc1cc(=O)oc2cc(OCCOc3ccc(/C=C/C(=O)Nc4ccccc4N)cc3)ccc12",
    "category": "N"
  },
  {
    "smilesStructure": "S=C(Nc1ccc(OCc2nc3ccc(Cl)cc3[nH]2)cc1)NC1CCCCC1",
    "category": "N"
  },
  {
    "smilesStructure": "O=C(NO)c1ccc(CNc2nc(-c3ccccc3)c3ccccc3n2)cc1",
    "category": "N"
  },
  {
    "smilesStructure": "CCc1ccccc1NC(=O)N/C(N)=N/c1nc2ccccc2s1",
    "category": "Y"
  }
]

* * *

system: MCF7 breast; assay: NCI tumour cell line growth inhibition, 48 h
Each entry below lists one item and its recorded TGI value.

[
  {
    "smilesStructure": "CCc1ccccc1NC(=O)N/C(N)=N/c1nc2ccccc2s1",
    "qual": "=",
    "TGI [µM]": 12.3
  },
  {
    "smilesStructure": "O=C(NO)c1ccc(CNc2nc(-c3ccccc3)c3ccccc3n2)cc1",
    "qual": ">",
    "TGI [µM]": 28
  },
  {
    "smilesStructure": "S=C(Nc1ccc(OCc2nc3ccc(Cl)cc3[nH]2)cc1)NC1CCCCC1",
    "qual": "=",
    "TGI [µM]": 12.4
  },
  {
    "smilesStructure": "O=C(CNc1nc(-c2ccccc2)cs1)Nc1ccccc1",
    "qual": "=",
    "TGI [µM]": 3.41
  }
]
